pIC50: −log10 of the molar value.
Compiled from multiple publications: pIC50 readings for Somatostatin receptor type 4 (Homo sapiens).

MOLECULE	BOUND SIGN	pIC50
C[C@@H](O)[C@@H]1NC(=O)[C@H](CCCCN)NC(=O)[C@@H](Cc2c[nH]c3ccccc23)NC(=O)[C@H](Cc2ccccc2)NC(=O)[C@H](Cc2ccccc2)NC(=O)[C@@H](N)CSSC[C@@H](C(=O)O)NC(=O)[C@H](N(C)C(=O)c2ccccc2)NC1=O	=	8.16
CC(C)NCc1ccc(C[C@@H]2NC(=O)[C@@H](Cc3c[nH]c4ccccc34)NC(=O)[C@@H](NC(=O)[C@@H](N)Cc3ccccc3)CCC(=O)NCCCC[C@@H](C(=O)N[C@@H](CO)C(=O)O)NC(=O)[C@H](Cc3ccccc3)NC(=O)[C@H]([C@@H](C)O)NC2=O)cc1	<	6.00
CC(C)NCc1ccc(C[C@@H]2NC(=O)[C@@H](Cc3c[nH]c4ccccc34)NC(=O)[C@@H]3CCC(=O)NCCCC[C@H](NC(=O)[C@H](Cc4ccccc4)NC(=O)[C@H]([C@@H](C)O)NC2=O)C(=O)N[C@@H](CO)C(=O)N[C@H](C(N)=O)CSSC[C@H](NC(=O)[C@@H](N)Cc2ccc(O)cc2)C(=O)N[C@@H](CCCCN)C(=O)N[C@@H](Cc2ccccc2)C(=O)N3)cc1	<	6.00
C[C@@H](O)[C@@H]1NC(=O)[C@H](CCCCN)NC(=O)[C@@H](Cc2c[nH]c3ccccc23)NC(=O)[C@H](N(C)C(=O)c2ccccc2)NC(=O)[C@H](Cc2ccccc2)NC(=O)[C@H](N)CSSC[C@@H](C(=O)O)NC(=O)[C@H](Cc2ccccc2)NC1=O (stereo in doubt; 7)	=	6.88
C[C@@H](O)[C@@H]1NC(=O)[C@H](N(C)C(=O)CCN)NC(=O)[C@@H](Cc2c[nH]c3ccccc23)NC(=O)[C@H](Cc2ccccc2)NC(=O)[C@H](Cc2ccccc2)NC(=O)[C@@H](N)CSSC[C@@H](C(=O)O)NC(=O)[C@H](Cc2ccccc2)NC1=O	<	6.00
C[C@@H](O)[C@@H]1NC(=O)[C@H](CCCCN)NC(=O)[C@@H](Cc2c[nH]c3ccccc23)NC(=O)[C@H](Cc2ccccc2)NC(=O)[C@H](Cc2ccccc2)NC(=O)[C@@H](N)CSSC[C@@H](C(=O)O)NC1=O	<	6.00
C[C@@H](O)[C@H]1NC(=O)[C@H](CCCCN)NC(=O)[C@@H]([C@@H](C)c2ccc3ccccc3c2)NC(=O)[C@H](Cc2ccccc2)NC(=O)[C@@H](Cc2ccccc2)NC(=O)[C@H](N)CSSC[C@@H](C(=O)O)NC(=O)[C@H](Cc2ccc(O)cc2)NC1=O	=	7.93
